# System: MS-1;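 note: growth inhibition of MS-1 cells, read out by cell viability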
# Test Description: cells
# Assay type: functional, cell-based, Homo sapiens
# Reported Conditions: Homo sapiens, MS-1
# Description: SANGER: Inhibition of human MS-1 cell growth in a cell viability assay.
Record form. Attribute: IC50. Fill in for each entry.

[Q] Dear colleague, I am looking for the recorded IC50 of the following compound: C#Cc1cccc(Nc2ncnc3cc(OCCOC)c(OCCOC)cc23)c1
[A] > 2 µM

[Q] Tell me the measured IC50 of Cc1cn(-c2cc(NC(=O)c3ccc(C)c(Nc4nccc(-c5cccnc5)n4)c3)cc(C(F)(F)F)c2)cn1 , please.
[A] > 2 µM

[Q] Fill in: IC50 of Cn1cnc2c(F)c(Nc3ccc(Br)cc3Cl)c(C(=O)NOCCO)cc21 is ___
[A] > 4 µM

Every entry's value here was drawn from ChEMBL document CHEMBL1201861.
